// provenance: patent US12710427B2

Target: T1, NTSR1 on A549 cells (Homo sapiens, UniProt P30989)
T1 construct: endogenous in cells; host or cells: A549 (NSCLC)
T1 sequence (P30989 whole entry): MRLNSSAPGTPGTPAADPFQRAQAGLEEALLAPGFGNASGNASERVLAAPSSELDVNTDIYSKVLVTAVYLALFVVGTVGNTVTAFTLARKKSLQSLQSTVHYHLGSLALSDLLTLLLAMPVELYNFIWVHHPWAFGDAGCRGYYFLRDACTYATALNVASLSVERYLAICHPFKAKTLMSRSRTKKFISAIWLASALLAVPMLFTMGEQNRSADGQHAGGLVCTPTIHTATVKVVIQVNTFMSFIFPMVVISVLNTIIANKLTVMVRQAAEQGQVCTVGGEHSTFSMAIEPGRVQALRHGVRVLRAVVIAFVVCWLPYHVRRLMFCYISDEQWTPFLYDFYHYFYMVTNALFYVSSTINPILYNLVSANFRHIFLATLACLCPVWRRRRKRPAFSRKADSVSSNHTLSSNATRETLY
Experiment: Flow cytometry (FACS) binding of anti-NTSR1 antibodies on A549 cells
Conditions: FACS, h7C3-1 variants
Method: A total of 1×10^6 cells were reacted with an anti-NTSR1 antibody in 100 μL of FACS buffer (PBS containing 0.5% BSA) for 60 minutes at 4° C. and washed two times to remove excess antibody. Secondary FITC (BD Pharmingen™) conjugated mouse anti-human IgG antibodies were incubated for an additional 60 minutes on ice. […] Fluorescence intensity from channel FL-1 was calculated with Flow Jo flow […] cytometry analysis software.
measured.metric: binding affinity to cell surface NTSR1 compared with h7C3-1

molecule="G96A: h7C3-1 variant, G96A in CDR L3 (antibody, V domains shown) VH: QVQLQQPGSVLVRPGASVKLSCKASGYTFTSSWIHWAKQRPGQGLEWIGQIRPNSGNTYYNEKFKVKATLTVDTSSSTAYVDLSSLTSEDSAVYYCARYHYGFDYWGQGTLVTVSS VL: DVLMTQTPLSLPVSLGDQASISCRSSQSIVHSNGNTYLEWYLQKPGQSPKLLIYKVSNRFSGVPDRFSGSGSGTDFTLKISRVEAEDLGVYYCFQASHLPWTFGGGTKLEIKR" result="significantly diminished"
molecule="P100A: h7C3-1 variant, P100A in CDR L3 (antibody, V domains shown) VH: QVQLQQPGSVLVRPGASVKLSCKASGYTFTSSWIHWAKQRPGQGLEWIGQIRPNSGNTYYNEKFKVKATLTVDTSSSTAYVDLSSLTSEDSAVYYCARYHYGFDYWGQGTLVTVSS VL: DVLMTQTPLSLPVSLGDQASISCRSSQSIVHSNGNTYLEWYLQKPGQSPKLLIYKVSNRFSGVPDRFSGSGSGTDFTLKISRVEAEDLGVYYCFQGSHLAWTFGGGTKLEIKR" result="significantly diminished"
